These measurements were taken from patent US20260083735A1.

Measured pIC50, listed per entry for reference.
test_target: UniProt:Q9BV23
Sequence (Q9BV23 1-337): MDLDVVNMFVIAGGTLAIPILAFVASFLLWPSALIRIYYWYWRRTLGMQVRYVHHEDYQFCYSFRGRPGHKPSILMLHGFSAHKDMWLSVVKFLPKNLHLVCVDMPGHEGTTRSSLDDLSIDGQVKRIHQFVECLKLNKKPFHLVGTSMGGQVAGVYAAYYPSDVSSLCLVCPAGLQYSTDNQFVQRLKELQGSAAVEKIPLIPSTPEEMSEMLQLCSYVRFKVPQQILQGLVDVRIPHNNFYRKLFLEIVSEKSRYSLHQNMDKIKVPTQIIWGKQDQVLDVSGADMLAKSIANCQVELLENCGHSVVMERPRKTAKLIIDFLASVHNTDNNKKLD
measurement_notes: Measurement of binding affinity for human ABHD6 (BRET, HEK293 cells expressing NanoLuc-human ABHD6 fusion protein)
protocol_conditions: fluorescent probe 100 nmol/L
Interpret pIC50 as the negative base-10 log of the concentration measured in mol/L.

// below: answered compounds
> print(dat)
                                   compound  experimental.value
1  O=C(c1cc2c(s1)CCOC2)N1C[C@@H]2CC[C@@H](Oc3ccc(Br)nn3)[C@]2(O)C1                8.52
2  O=C(c1cc2c(s1)CCOC2)N1CC2CCC(Oc3nnc(Cl)c4ccsc34)C2C1 (stereo not shown)                8.05
3  O=C(c1cc2c(s1)CCOC2)N1C[C@@H]2CC3(CC3)[C@@H](Oc3ccc(Br)nn3)[C@@H]2C1                9.00

From here, focus on the item given below.
Exercise: Given the compound O=C(c1ccc(C(F)F)s1)N1C[C@@H]2CC[C@@H](Oc3ccc(Br)nn3)[C@@H]2C1 , what is its reported pIC50?
Key: 7.70

---

test_target: recombinant human ABHD6 (33-337) (Homo sapiens)
Construct: recombinant human ABHD6 (33-337); GST; made in house; host or cells: E. coli
measurement_notes: Evaluation of ABHD6 enzyme inhibitory activity (arachidonic acid production from 1-arachidonoyl glycerol, RapidFire-MS)
Format: biochemical
protocol_conditions: recombinant human GST-tagged ABHD6 (33-337), substrate 1-arachidonoyl glycerol 10 μmol/L, 1 hour, room temperature
quantity_measured: IC50

Examples from the recorded data:
> print(dat)
                                   molecule  experimental.value
1  O=C(c1cc2c(s1)CCOC2)N1CC2CCC(Oc3nnc(Cl)c4ccsc34)C2C1 (centres unmarked)                1 nM
2  O=C(c1cc2c(s1)CCOC2)N1C[C@@H]2C[C@H](F)[C@@H](Oc3ccc(Br)nn3)[C@@H]2C1              < 1 nM
3  COC(=O)N1CCc2sc(C(=O)N3C[C@@H]4CC[C@@H](Oc5ccc(Br)nn5)[C@@H]4C3)cc2C1              < 1 nM
4  Cn1ncc2cc(C(=O)N3C[C@@H]4CC[C@@H](Oc5ccc(Br)nn5)[C@@H]4C3)sc21              < 1 nM
5  Cc1ccc(C(=O)N2C[C@@H]3CC[C@@H](Oc4ccc(Br)nn4)[C@@H]3C2)s1                1 nM

Exercise: What value of measured IC50 is listed for O=C(c1ccc(C(F)F)s1)N1C[C@@H]2CC[C@@H](Oc3ccc(Br)nn3)[C@@H]2C1 ?
Key: < 1 nM

Exercise: Need IC50 of O=C(c1ccc(OCCF)s1)N1C[C@@H]2CC[C@@H](Oc3ccc(Br)nn3)[C@@H]2C1 , thanks.
Key: < 1 nM
